Would you mind telling me the reported activation factor of each entry?
system: intestinal alkaline phosphatase [Mus musculus]; assay: mouse intestinal phosphatase enzyme activation – biochemical, luminescence, single concentration, confirmation (AID 434970); conditions: purified mouse IAP, CDP-Star luminescence, 30 min, at 10 µM; measured here: IAP activation factor, stronger effect = higher value
Screen size: about 11,000 compounds; about 310 (2.8%) were called active. For the sample, actives were picked, then their nearest neighbours and some compounds at random.
Numbers only.

# example entries with known answers
q: Retrieve activation factor measured for O=C(Nc1cnn(Cc2ccccc2)c1)NC12CC3CC(CC(C3)C1)C2 and print it.
a: 2.05

q: Retrieve activation factor measured for CCOC(=O)C1=CNS(=O)(=O)NC1c1ccc(C)cc1 (stereo not given) and print it.
a: 0.96

q: Retrieve activation factor measured for O=C(Nc1cccc(F)c1)N1CCN(C/C=C/c2ccccc2)CC1 and print it.
a: 0.988

q: Retrieve activation factor measured for COc1cc(O)c2c(c1)OC(C)(C)CC2=O and print it.
a: 1.08

q: Retrieve activation factor measured for Cc1ccc(NC(=S)NC2CCSc3ccccc32)cc1 (stereo not given) and print it.
a: 1.37

q: Retrieve activation factor measured for C=CCn1cc(CN2CCC(C(=O)Nc3cccc(-c4cccc(F)c4)c3)CC2)c(C)n1 and print it.
a: 2.94

I'm hoping you can list activation factor for every molecule here, please.
1. CC[C@]12c3[nH]c4ccc(Cl)cc4c3CCN1C(=O)[C@@H](CC(=O)NC(C)(C)C)C[C@@H]2C(=O)N1CCN(C(=O)c2ccco2)CC1
2. O=S(=O)(Nc1ccccc1)c1ccc(Oc2ncc(C(F)(F)F)cc2Cl)cc1
3. Cc1ccccc1C(=O)/C=C1\NC(=O)CS1
4. O=C(CSc1nnc(-c2ccncc2)n1CC1CCCO1)Nc1nccs1 (stereo not given)
5. CCOC(=O)c1cnc(SCc2cccc(C)c2)nc1N

a:
[1.14, 0.903, 1.05, 1.03, 1.08]

I'm hoping you can list activation factor for every molecule here, please.
1. COc1ccc(Cl)cc1C(=O)NCc1cnn(C)c1C
2. O=C(Nc1cnn(Cc2ccc(Cl)c(Cl)c2)c1)C12CC3CC(CC(C3)C1)C2
3. Cc1cccc(NC(=S)NCCN(C2CCCCC2)C2CCCC2)c1
4. Cc1c(CN2CCC(C(=O)Nc3cccc(-c4cccc(Cl)c4)c3)CC2)cnn1C

a:
1. 0.932
2. 1.17
3. 1.23
4. 4.12

====

tested on: intestinal alkaline phosphatase [Mus musculus]; assay: mouse intestinal phosphatase enzyme activation – biochemical, luminescence, single concentration, confirmation (AID 434970); conditions: purified mouse IAP, CDP-Star luminescence, 30 min, at 10 µM; measured here: IAP activation factor, stronger effect = higher value
Among all 11,000 compounds or so, about 310 (2.8%) were called active. Many of the other results were omitted from the sample, so actives are more common in it than they were.
Would you mind telling me the reported activation factor of each entry?

# example entries with known answers
q: Retrieve activation factor measured for S=C(NCC1COc2ccccc2O1)Nc1ccc(Br)cc1 (stereo not drawn) and print it.
a: 1.68

q: Retrieve activation factor measured for Cc1ccc(-c2cc(C(F)F)n3ncc(C(=O)N4CCN(c5cccc(C)c5C)CC4)c3n2)cc1 and print it.
a: 0.892

I'm hoping you can list activation factor for every compound here, please.
1. C[C@@H]1CN([C@@H](C)CO)C(=O)c2cc(NC(=O)Nc3ccccc3)ccc2O[C@H]1CN(C)C(=O)Nc1cccc2ccccc12
2. COc1ccc(N2CCN(CCCNC(=O)Nc3ccccc3)CC2)cc1

a:
1: 1.8; 2: 1.16

I'm hoping you can list activation factor for every compound here, please.
1. S=C(NCCc1ccc(Cl)cc1)Nc1ccc(Cl)cc1Cl
2. C[C@@H]1CN([C@@H](C)CO)C(=O)Cc2cc(NC(=O)Nc3cccc4ccccc34)ccc2O[C@@H]1CN(C)Cc1ccc(C(F)(F)F)cc1
3. CC(C)NC(=O)N(C)C[C@H]1Oc2ccc(NC(=O)Nc3ccc(C(F)(F)F)cc3)cc2C(=O)N([C@H](C)CO)C[C@@H]1C
4. NC(=O)NC[C@@H]1CC[C@@H](Cc2ccc(-c3ccccc3)cc2)O1
5. Cc1ccc(NC(=O)CCn2nc(C)cc2C)cc1

a:
1: 1.36; 2: 1.75; 3: 1.96; 4: 1.01; 5: 1.12

I'm hoping you can list activation factor for every compound here, please.
1. COC(=O)c1c(NC(=O)Nc2ccc(Cl)cc2)sc(C)c1C
2. COc1ccccc1NC(=S)NCCC(c1ccccc1)c1ccccc1
3. Cc1ccccc1NC(=S)NCCC(c1ccccc1)c1ccccc1
4. Cc1nn(C(C)C)c(C)c1CN1CCC(C(=O)Nc2cccc(-c3cccc(F)c3)c2)CC1
5. C[C@@H]1CN([C@@H](C)CO)C(=O)Cc2cc(NC(=O)Nc3cccc4ccccc34)ccc2O[C@@H]1CN(C)S(C)(=O)=O
6. C[C@@H]1CN([C@H](C)CO)C(=O)c2cc(NC(=O)Nc3cccc4ccccc34)ccc2O[C@H]1CN(C)Cc1ccc(C(F)(F)F)cc1
7. COc1ccc2[nH]c(=O)c(CN(C(C)=O)c3cccc(C)c3)cc2c1

a:
[0.99, 1.39, 1.96, 4.89, 1.46, 2.2, 0.991]

I'm hoping you can list activation factor for every compound here, please.
1. Cc1ccccc1N(CC(=O)N1CCN(c2ccccc2)CC1)S(C)(=O)=O
2. COc1cc2c(cc1OC)[C@@H](NC(=O)COc1ccccc1)[C@H](OCc1ccccc1)C2
3. CC(=O)c1ccc(NC(=O)Cn2nc(C)cc2C)cc1

a:
1: 0.932; 2: 1.07; 3: 0.948

I'm hoping you can list activation factor for every compound here, please.
1. Cc1c(Cl)cccc1NC(=S)NCCC(C)C
2. CN1CCN(CCc2nc3cc(NC(=O)COc4ccccc4)ccc3n2C)CC1
3. COc1ccc(S(=O)(=O)Nc2ccccc2)cc1OC
4. CCOC(=O)C1=C(C)N(C[C@@H]2CC[C@@H](Cc3ccc(-c4ccccc4)cc3)O2)C(=O)NC1c1ccc(-c2ccccc2)cc1 (stereo partly drawn)
5. Cc1ccc(Cn2nc(C)c(NC(=O)C3CC3)c2C)cc1
6. O=P(OC1CCS(=O)(=O)C1)(c1ccccc1)c1ccccc1 (stereo not drawn)
7. C[C@H](CO)N1C[C@H](C)[C@H](CN(C)Cc2ccccc2)Oc2ccc(NC(=O)Nc3ccc(F)cc3)cc2C1=O
8. CC(C)S(=O)(=O)c1csc(NC(=O)Nc2ccc(Cl)cc2)c1Cl

a:
[1.19, 0.96, 0.947, 1.12, 1.06, 0.921, 1.54, 2.16]

q: Retrieve activation factor measured for O=C(C[C@H]1C[C@H](C(=O)N2CCOCC2)[C@@]2(CCC3CCCC3)c3[nH]c4cc(-c5ccco5)ccc4c3CCN2C1=O)NCCc1ccccn1 and print it.
a: 1.17

====

test system: intestinal alkaline phosphatase [Mus musculus]; experiment: mouse intestinal phosphatase enzyme activation – biochemical, luminescence, single concentration, confirmation (AID 434970); conditions: purified mouse IAP, CDP-Star luminescence, 30 min, at 10 µM; measured here: IAP activation factor, stronger effect = higher value
Among all 11,000 compounds or so, about 310 (2.8%) were called active. For the sample, actives were picked, then their nearest neighbours and some compounds at random.
measured.property: activation factor
Numbers only.

q: Retrieve activation factor measured for O=C(Nc1cccc(Cl)c1)Nc1cccc(Cl)c1 and print it.
a: 3.21

I'm hoping you can list activation factor for every compound here, please.
1. Cc1oc(-c2ccc(Cl)cc2)nc1CN1CCC(C(=O)NCc2cccs2)CC1
2. CCC1(COC(=O)Nc2cccc(Cl)c2)COC1
3. CC(=O)Nc1cccc(NC(=O)Nc2ccc(C(C)=O)cc2)c1

a:
1. 1.19
2. 1.16
3. 1.13

I'm hoping you can list activation factor for every compound here, please.
1. CSc1ccccc1NC(=O)Nc1cccc(Cl)c1
2. COc1ccc(CN(C(=O)c2ccco2)C2CC(C)N(C)CC2C)cc1 (stereo unspecified)

a:
[1.48, 0.982]

====

test system: intestinal alkaline phosphatase [Mus musculus]; assay: mouse intestinal phosphatase enzyme activation – biochemical, luminescence, single concentration, confirmation (AID 434970); settings: purified mouse IAP, CDP-Star luminescence, 30 min, at 10 µM; measured here: IAP activation factor, stronger effect = higher value
Out of some 11,000 compounds screened, about 310 (2.8%) were called active. What follows is part of a selection rich in actives, with near analogues and random picks from the rest.
Entry flag: 1 if activation factor reaches 1; 0 if it does not.

Solved cases (5 shown):
q: State whether the measured activation factor reaches 1, counting equality as reaching it, for Clc1ccc(-n2nnnc2-c2cnc(-c3ccncc3)nc2-c2cccs2)cc1
a: 0

q: State whether the measured activation factor reaches 1, counting equality as reaching it, for COc1cccc(NC(=S)NCCN2CCOCC2)c1
a: 1

q: State whether the measured activation factor reaches 1, counting equality as reaching it, for CCn1c(CNc2ccc(OC)cc2)nnc1SCC(=O)Nc1ccc(F)cc1
a: 1

q: State whether the measured activation factor reaches 1, counting equality as reaching it, for Cc1ccc(CNC(=O)c2cc(-c3ccccc3)nn2Cc2cc(C)no2)cc1
a: 1

q: State whether the measured activation factor reaches 1, counting equality as reaching it, for CCc1cc(Cn2nc(-c3ccccc3)cc2C(=O)NCc2cccc(Br)c2)on1
a: 1

Further cases:
q: State whether the measured activation factor reaches 1, counting equality as reaching it, for COc1ccc(C2=NOC(Cn3nc(-c4ccccc4)cc3C(=O)NCc3cccc(Br)c3)C2)cc1 (stereo unspecified)
a: 1

q: State whether the measured activation factor reaches 1, counting equality as reaching it, for O=C1CCCCCN1Cc1nnc(SCc2nc3ccccc3s2)n1-c1ccccn1
a: 0

q: State whether the measured activation factor reaches 1, counting equality as reaching it, for CCc1ccc(NC(=O)c2sccc2-n2cccc2)cc1
a: 1

q: State whether the measured activation factor reaches 1, counting equality as reaching it, for CCn1nccc1C(=O)Nc1ccc(Cl)c(Cl)c1
a: 0

q: State whether the measured activation factor reaches 1, counting equality as reaching it, for CC(C)CC(=O)NC(NC(=S)Nc1sc2c(c1C#N)CCCC2)C(Cl)(Cl)Cl (stereo unspecified)
a: 0

q: State whether the measured activation factor reaches 1, counting equality as reaching it, for CCOc1ccc(-n2cc(C(=O)Nc3cccc(Cl)c3)c3cc(OC)c(OC)cc3c2=O)cc1
a: 1

q: State whether the measured activation factor reaches 1, counting equality as reaching it, for CCc1cc(Cn2nc(-c3ccccc3)cc2C(=O)NCc2ccccc2OC)on1
a: 1

q: State whether the measured activation factor reaches 1, counting equality as reaching it, for COc1cc2oc(=O)cc(-c3ccc(-c4ccc(C)cc4)cc3)c2c(OC)c1OC
a: 0
